Target: human PDE2A1 (Homo sapiens)
Construct: GST; purchased BPS Bioscience (San Diego, Calif.) 60020; host or cells: insect cells
Sequence (O00408 1-920 isoform O00408-2): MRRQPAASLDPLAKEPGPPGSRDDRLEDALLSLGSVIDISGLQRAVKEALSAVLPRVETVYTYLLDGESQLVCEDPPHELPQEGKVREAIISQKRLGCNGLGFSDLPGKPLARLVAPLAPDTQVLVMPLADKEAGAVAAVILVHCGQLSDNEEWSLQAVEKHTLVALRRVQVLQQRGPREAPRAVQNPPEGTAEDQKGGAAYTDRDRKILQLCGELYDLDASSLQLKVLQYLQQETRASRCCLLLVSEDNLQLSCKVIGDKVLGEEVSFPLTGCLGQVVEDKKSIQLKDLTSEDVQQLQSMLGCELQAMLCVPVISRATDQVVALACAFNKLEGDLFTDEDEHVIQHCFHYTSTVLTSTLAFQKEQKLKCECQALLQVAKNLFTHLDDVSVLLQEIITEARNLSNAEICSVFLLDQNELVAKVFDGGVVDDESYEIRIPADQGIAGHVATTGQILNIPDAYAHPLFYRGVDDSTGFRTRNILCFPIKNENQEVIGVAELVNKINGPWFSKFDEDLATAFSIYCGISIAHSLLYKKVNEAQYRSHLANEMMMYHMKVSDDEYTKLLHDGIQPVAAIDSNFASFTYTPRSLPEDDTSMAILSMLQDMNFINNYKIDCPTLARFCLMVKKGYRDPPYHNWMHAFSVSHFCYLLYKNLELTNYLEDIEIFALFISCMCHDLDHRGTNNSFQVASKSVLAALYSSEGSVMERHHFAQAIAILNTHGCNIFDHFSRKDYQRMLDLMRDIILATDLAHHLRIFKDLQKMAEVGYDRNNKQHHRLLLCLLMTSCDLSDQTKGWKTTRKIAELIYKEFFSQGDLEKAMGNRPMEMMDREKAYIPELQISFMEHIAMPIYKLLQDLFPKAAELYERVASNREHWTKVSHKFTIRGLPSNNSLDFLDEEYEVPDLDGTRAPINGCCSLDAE
Assay: IMAP FP PDE selectivity panel, human PDE2A1
Assay type: biochemical
Details: Lab B; read-out: Human PDE2 Ki (nM) Lab B
MEASUREMENT NAME: Ki (nM)
Dear colleague, please return just the value in nM, with no unit written.

{"columns": ["COMPOUND", "MEASUREMENT NAME", "EXPERIMENTAL VALUE"],
 "data": [
  ["Cc1cc(NC2(c3ccc(C(F)(F)F)c(F)c3)CC2)n2nc(C3CC3)nc2n1 [Example 195]", "Ki", 144],
  ["Cc1cc(NC2(c3ccc(C(F)(F)F)c(F)c3)CC2)n2nc(CO)nc2n1 [Example 196]", "Ki", 321],
  ["CC(C)(O)C(Nc1cc(C(F)(F)F)nc2ncnn12)c1ccc2c(c1)OC(F)(F)O2 (single isomer, unassigned) [Example 167]", "Ki", 184],
  ["Cc1cc(N[C@@H](c2ccc(C3CC3)cc2)C2CC2)n2ncnc2n1 [Example 42]", "Ki", 20],
  ["Cc1cc(NC2(c3ccc(C(F)(F)F)cc3)CCC2)n2ncnc2n1 [Example 64]", "Ki", 77],
  ["Cc1cc(NC2(c3ccc(SC(F)(F)F)c(F)c3)CCC2)n2ncnc2n1 [Example 66]", "Ki", 108],
  ["Fc1cc(C2(Nc3cc(C(F)(F)F)cc4ncnn34)CC2)ccc1C(F)(F)F [Example 276]", "Ki", 68],
  ["Cc1cc(NC2(c3ccc(C(F)(F)F)c(F)c3)CC2)n2nc(N)nc2n1 [Example 255]", "Ki", 22],
  ["Cc1cc(N[C@H](c2ccc(OC(F)(F)F)cc2Cl)C(C)(C)O)n2ncnc2n1 [Example 101]", "Ki", 27],
  ["C[C@H](Nc1cc(CO)cc2ncnn12)c1ccc(C(F)(F)F)cc1 [Example 268]", "Ki", 2080]
]}

Look at this compound and give its reported Ki. Cc1cc(NC2(c3ccc(C(F)(F)F)cc3)CCCC2)n2ncnc2n1 [Example 67]
367

Would you kindly repeat that for Cc1cc(NC(C)(C)c2ccc(C(F)(F)F)cc2Cl)n2ncnc2n1 [Example 47] ?
161

Now try Cc1cc(N[C@@H](c2ccc(C(F)(F)F)c(F)c2)C(C)(C)C)n2nc(CF)nc2n1 [Example 191] .
67

Likewise for C[C@@H](Nc1cc(CO)cc2ncnn12)c1ccc(C(F)(F)F)cc1 [Example 267] ?
236

Also check Cc1cc(N[C@@H](c2ccc(C(F)(F)F)c(F)c2)C2CC2)n2ncnc2n1 [Example 39]
49

###

Target: human PDE2A1 (Homo sapiens)
Construct: GST; purchased BPS Bioscience (San Diego, Calif.) 60020; host or cells: insect cells
Test: IMAP FP PDE selectivity panel, human PDE2A1
Type: biochemical
Settings: Lab B; read-out: Human PDE2 Ki (nM) Lab B
Please respond with t when measured Ki is strictly beneath 90 nM, and with f in all other cases.

Illustrative cases are given below, each with its answer.
{"columns": ["COMPOUND", "LABEL VALUE"],
 "data": [
  ["Cc1cc(NC(c2ccc(OC(F)(F)F)c(F)c2)C2COC2)n2ncnc2n1 (single isomer, unassigned) [Example 229]", "f"],
  ["Cc1cc(N[C@@H](c2ccc(C(F)(F)F)c(F)c2)C(C)C)n2ncnc2n1 [Example 20]", "t"],
  ["Cc1cc(N[C@@](C)(c2ccc(OC(F)(F)F)cc2)C(C)(C)O)n2ncnc2n1 [Example 155]", "f"],
  ["Cc1cc(NC2(c3ccc(S(F)(F)(F)(F)F)cc3)CC2)n2ncnc2n1 [Example 58]", "t"],
  ["Cc1cc(N[C@@H](c2ccc(SC(F)(F)F)cc2)C(C)(C)C)n2ncnc2n1 [Example 29]", "t"],
  ["CC(C)(O)[C@@H](Nc1cc(C(F)(F)F)nc2ncnn12)c1ccc(S(F)(F)(F)(F)F)cc1 (single isomer, unassigned) [Example 177]", "t"],
  ["CC(C)(O)C(Nc1cc(C2CC2)nc2ncnn12)c1ccc(OC(F)(F)F)cc1F (single isomer, unassigned) [Example 143]", "f"],
  ["Cc1cc(NC(C)(C)c2ccc(C(F)(F)F)cc2C)n2ncnc2n1 [Example 54]", "f"],
  ["OCc1cc(NC2(c3ccc(C(F)(F)F)c(F)c3)CC2)n2ncnc2c1 [Example 266]", "t"],
  ["Cc1cc(N[C@H](C)c2ccc(OC(F)(F)F)c(F)c2)n2ncnc2n1 [Example 8]", "t"]
]}

Hello, is Ki of the following compound strictly smaller than 90 nM? Cc1cc(NC(c2ccc3c(c2)OC(F)(F)O3)C(C)(C)O)n2ncnc2n1 (single isomer, unassigned) [Example 113]
f
